target: human CB2 receptor (Homo sapiens, UniProt P34972); test: cAMP functional assay in Flpin-CHO-CB2 cells (antagonism of CP55940-mediated decrease in cAMP); assay type: cell-based
Sequence (P34972 whole entry): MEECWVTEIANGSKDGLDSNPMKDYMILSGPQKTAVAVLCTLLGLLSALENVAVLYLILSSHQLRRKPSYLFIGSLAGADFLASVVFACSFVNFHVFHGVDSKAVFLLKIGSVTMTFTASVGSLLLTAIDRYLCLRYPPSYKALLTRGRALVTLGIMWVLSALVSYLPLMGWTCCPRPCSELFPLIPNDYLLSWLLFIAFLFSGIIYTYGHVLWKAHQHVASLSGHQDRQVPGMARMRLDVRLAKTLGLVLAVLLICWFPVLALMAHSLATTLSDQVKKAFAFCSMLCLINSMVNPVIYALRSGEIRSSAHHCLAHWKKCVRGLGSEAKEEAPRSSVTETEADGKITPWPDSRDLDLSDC
measurementLabel: pIC50
Just the number, please; pIC50 means minus log10 of the concentration in mol/L.

Input line: Fill in: pIC50 of O=C(NC1CCCCCC1)c1cc(-c2cccs2)nn1Cc1ccc(F)cc1 is ___
Output line: 5.55

* * *

biological target: human CB1 receptor (Homo sapiens, UniProt P21554); test: cAMP functional assay against CB1 receptor; format: cell-based; details: cAMP assay pIC50, human CB1 receptor
Sequence (P21554 whole entry): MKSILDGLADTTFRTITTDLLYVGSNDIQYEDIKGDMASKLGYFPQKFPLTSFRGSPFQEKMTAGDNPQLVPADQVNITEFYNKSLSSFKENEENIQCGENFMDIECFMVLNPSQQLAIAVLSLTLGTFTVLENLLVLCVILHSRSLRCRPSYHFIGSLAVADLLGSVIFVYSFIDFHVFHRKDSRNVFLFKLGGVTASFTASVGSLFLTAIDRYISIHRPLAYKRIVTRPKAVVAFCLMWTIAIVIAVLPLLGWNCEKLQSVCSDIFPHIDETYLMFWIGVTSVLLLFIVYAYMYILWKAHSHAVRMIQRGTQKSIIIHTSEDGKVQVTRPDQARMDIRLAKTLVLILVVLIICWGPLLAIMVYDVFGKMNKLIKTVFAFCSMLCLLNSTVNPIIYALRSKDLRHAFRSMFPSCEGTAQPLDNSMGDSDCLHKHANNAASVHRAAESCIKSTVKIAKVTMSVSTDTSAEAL
measurementLabel: pIC50
Just the number, please; pIC50 means minus log10 of the concentration in mol/L.

Input line: Fill in: pIC50 of O=C(NC1CCCCCC1)c1cc(-c2cccs2)nn1Cc1ccc(F)cc1 is ___
Output line: 5.34
